Where do the numbers come from? From ChEMBL document CHEMBL1961873.

Biological target: Dual specificity protein kinase TTK (Homo sapiens)
Details: at 0.1 µM
Description: GSK_PKIS: TTK mean inhibition at 0.1 uM [Nanosyn]
Give measured inhibition for each item. Keep answers brief.
Answers are plain numbers, in %.

Here is how some compounds turned out for inhibition.
structure_string | assay_metric | unit_text | value_observed
ON=C1CCc2cc(-c3nc(C4CCNCC4)[nH]c3-c3ccncc3)ccc21 | inhibition | % | 3.99
NS(=O)(=O)c1ccc(Nc2cc(-c3cccc(O)c3)n[nH]2)cc1 | inhibition | % | 16
CCS(=O)(=O)c1ccc(OC)c(Nc2nccc(N(C)c3ccc4c(C)n[nH]c4c3)n2)c1 | inhibition | % | 10.8
NS(=O)(=O)c1ccc(-c2cc3ccncc3cc2OCc2ccccc2)cc1 | inhibition | % | 9.2
CS(=O)(=O)Nc1cccc(-c2ccc3c(NC(=O)C4CC4)n[nH]c3c2)c1 | inhibition | % | 2.91
Cc1ccc(O)cc1Nc1ccnc2ccc(S(C)(=O)=O)cc12 | inhibition | % | 8.17
O=C1Nc2ccccc2/C1=C/Nc1ccc2[nH]c(=O)[nH]c2c1 | inhibition | % | 15.4
NS(=O)(=O)c1ccc(NC=C2C(=O)Nc3ccc4ncsc4c32)cc1 | inhibition | % | 52.1
CC(C)c1ccc2c(c1)NC(=O)/C2=N/Nc1ccc(S(N)(=O)=O)cc1 | inhibition | % | 2.93

Here's the next entry for you.
Under Dual specificity protein kinase TTK (Homo sapiens): inhibition value of `Cc1ccc2c(-c3ccnc(Nc4cccc(C(F)(F)F)c4)n3)c(-c3ccccc3)nn2n1` ?
10.5

---

Give measured inhibition for each item. Keep answers brief.
Molecular target: Cyclin-dependent kinase 1 (Homo sapiens);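 further: enzyme assay on the CDK1/cyclin B complex, reported as mean percent inhibition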
Settings: at 0.1 µM
One number for each entry, in %.

Batch request: inhibition for each of the following compounds.
1. Cc1cc(O)cc(C)c1/C=C/c1cncc(C(=O)N(C)C)c1
2. C[C@@H](Oc1cc(-n2cnc3ccc(OCC4CCN(C)CC4)cc32)sc1C(N)=O)c1ccccc1C(F)(F)F
3. CCCN1CCCC(c2ccc(Nc3nc(Nc4cc(F)ccc4C(N)=O)c4cc[nH]c4n3)c(OC)c2)C1 (stereo not given)
4. Cc1cc(Cl)cc2c1NC(=O)C2=NNc1ccc(S(N)(=O)=O)cc1
5. CCS(=O)(=O)c1ccc(OC)c(Nc2nccc(N(C)c3ccc4c(C)n[nH]c4c3)n2)c1
6. ON=C1CCc2cc(-c3nc(C4CCNCC4)[nH]c3-c3ccncc3)ccc21
7. N#Cc1c(NC(=O)c2ccccc2F)sc2c1CCCC2
8. CC(C)c1ccc(Nc2nccc(-c3cnn4ncccc34)n2)cc1

[1.02, 2.12, 0.12, 1.08, 0.39, 0.23, 1.03, 21.5]

---

Give measured inhibition for each item. Keep answers brief.
Target: Serine/threonine-protein kinase MRCK beta (Homo sapiens) (UniProt Q9Y5S2);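 further: values are mean percent inhibition of MRCKB, screened as part of the GSK PKIS kinase inhibitor set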
Sequence (Q9Y5S2 whole entry): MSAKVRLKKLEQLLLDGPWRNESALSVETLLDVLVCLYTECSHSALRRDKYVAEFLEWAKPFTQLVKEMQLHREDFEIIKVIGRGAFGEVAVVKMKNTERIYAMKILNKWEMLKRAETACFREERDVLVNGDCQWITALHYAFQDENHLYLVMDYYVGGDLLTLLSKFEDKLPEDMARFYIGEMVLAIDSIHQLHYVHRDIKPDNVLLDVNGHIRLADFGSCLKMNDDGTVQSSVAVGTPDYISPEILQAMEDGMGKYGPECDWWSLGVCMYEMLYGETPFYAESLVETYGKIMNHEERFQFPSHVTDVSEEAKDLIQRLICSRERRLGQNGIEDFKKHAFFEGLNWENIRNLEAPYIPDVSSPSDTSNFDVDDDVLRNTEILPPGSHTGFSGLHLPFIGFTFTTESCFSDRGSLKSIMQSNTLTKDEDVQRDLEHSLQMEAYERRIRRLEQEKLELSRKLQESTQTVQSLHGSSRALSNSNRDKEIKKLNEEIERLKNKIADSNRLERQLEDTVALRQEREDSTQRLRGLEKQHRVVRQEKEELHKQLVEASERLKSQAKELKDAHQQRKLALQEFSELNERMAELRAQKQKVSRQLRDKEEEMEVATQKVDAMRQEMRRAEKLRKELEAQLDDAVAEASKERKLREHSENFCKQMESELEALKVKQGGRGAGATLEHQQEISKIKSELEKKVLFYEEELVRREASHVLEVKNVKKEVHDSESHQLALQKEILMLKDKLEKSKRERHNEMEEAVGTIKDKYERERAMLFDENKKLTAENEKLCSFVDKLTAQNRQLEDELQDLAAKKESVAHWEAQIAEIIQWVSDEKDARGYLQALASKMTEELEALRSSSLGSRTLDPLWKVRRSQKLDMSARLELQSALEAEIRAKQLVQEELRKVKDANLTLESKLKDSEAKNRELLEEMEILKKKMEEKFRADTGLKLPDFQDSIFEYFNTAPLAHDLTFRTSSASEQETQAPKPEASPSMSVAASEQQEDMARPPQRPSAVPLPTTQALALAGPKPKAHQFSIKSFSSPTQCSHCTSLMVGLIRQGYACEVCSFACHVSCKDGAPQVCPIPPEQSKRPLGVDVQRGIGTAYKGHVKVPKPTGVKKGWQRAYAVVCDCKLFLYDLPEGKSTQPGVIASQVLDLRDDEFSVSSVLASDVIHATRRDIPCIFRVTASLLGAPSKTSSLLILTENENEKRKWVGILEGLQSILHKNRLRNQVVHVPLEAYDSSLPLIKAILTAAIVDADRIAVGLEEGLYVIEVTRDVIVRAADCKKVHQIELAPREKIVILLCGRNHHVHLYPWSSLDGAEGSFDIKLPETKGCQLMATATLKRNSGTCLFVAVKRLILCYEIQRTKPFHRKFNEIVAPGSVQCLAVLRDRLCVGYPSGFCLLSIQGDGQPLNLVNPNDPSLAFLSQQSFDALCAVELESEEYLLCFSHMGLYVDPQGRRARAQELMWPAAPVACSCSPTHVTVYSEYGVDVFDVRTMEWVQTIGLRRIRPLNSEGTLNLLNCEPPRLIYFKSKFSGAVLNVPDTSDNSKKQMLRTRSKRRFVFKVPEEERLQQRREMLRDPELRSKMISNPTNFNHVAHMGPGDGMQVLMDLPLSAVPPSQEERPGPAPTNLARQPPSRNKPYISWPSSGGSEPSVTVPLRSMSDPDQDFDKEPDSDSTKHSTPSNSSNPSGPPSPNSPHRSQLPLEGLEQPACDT
Conditions: at 0.1 µM
Answers are plain numbers, in %.

Here is how some molecules turned out for inhibition.
molecule | test_system | inhibition [%]
COc1cccc(-n2ncc3c(N/N=C/c4ccc(S(C)(=O)=O)cc4)ncnc32)c1 | Serine/threonine-protein kinase MRCK beta (Homo sapiens) (UniProt Q9Y5S2) | 0.04
Cc1ccc(NC(=O)CC2CC2)cc1-c1ccc(C(=O)NCC2CC2)cc1 | Serine/threonine-protein kinase MRCK beta (Homo sapiens) (UniProt Q9Y5S2) | -0.56
C[C@@H](Oc1cc(-n2cnc3ccc(OC[C@@H](O)CO)cc32)sc1C(N)=O)c1ccccc1Cl | Serine/threonine-protein kinase MRCK beta (Homo sapiens) (UniProt Q9Y5S2) | 1.02
CCS(=O)(=O)c1ccc(OC)c(Nc2nccc(N(C)c3ccc4c(C)n[nH]c4c3)n2)c1 | Serine/threonine-protein kinase MRCK beta (Homo sapiens) (UniProt Q9Y5S2) | 0.97
ON=C1CCc2cc(-c3nc(C4CCNCC4)[nH]c3-c3ccncc3)ccc21 | Serine/threonine-protein kinase MRCK beta (Homo sapiens) (UniProt Q9Y5S2) | -0.75
CN(c1ccc(NC(=O)Nc2ccc(OC(F)(F)F)cc2)cc1)c1ccnc(Nc2cccc(S(N)(=O)=O)c2)n1 | Serine/threonine-protein kinase MRCK beta (Homo sapiens) (UniProt Q9Y5S2) | -0.58

Batch request: inhibition for each of the following molecules.
1. FC(F)(F)c1ccc(-c2nn3ncccc3c2-c2ccnc(Nc3ccc4c(c3)OCCO4)n2)cc1
2. COc1cc2ncnc(Nc3ccc(C)c(O)c3)c2cc1OC
3. C[C@@H](Oc1cc(-n2cnc3ccc(OCC4CCN(C)CC4)cc32)sc1C(N)=O)c1ccccc1C(F)(F)F
4. Cc1ccc(O)cc1Nc1ccnc2ccc(S(C)(=O)=O)cc12
5. CCS(=O)(=O)c1ccc(OC)c(Nc2ncc(-c3cccc(OC)c3)o2)c1
6. COC(=O)c1cncc(/C=C/c2c(C)cc(O)cc2C)c1
7. COC(=O)c1ccc2c(c1)C(=Cc1cc(Br)c(O)c(Br)c1)C(=O)N2

1: 6.18; 2: 1.59; 3: 0.07; 4: -0.33; 5: -0.48; 6: -0.09; 7: -0.51

Batch request: inhibition for each of the following molecules.
1. NS(=O)(=O)c1ccc(Nc2cc(-c3cccc(O)c3)n[nH]2)cc1
2. NC(=O)c1sc(-n2cnc3ccccc32)cc1OCc1ccccc1Br
3. COc1ccc2ncnc(Nc3ccc(OCc4ccccc4)cc3)c2c1
4. Nc1nccc(-c2c(-c3ccc(F)cc3)ncn2CCCN2CCOCC2)n1
5. N#Cc1c(NC(=O)c2ccccc2F)sc2c1CCCC2
6. O=C(Nc1ccc(Oc2ccc3[nH]c(NC(=O)c4ccco4)nc3c2)cc1)Nc1cc(C(F)(F)F)ccc1F
7. CS(=O)(=O)Nc1cccc(-c2ccc3c(NC(=O)C4CC4)n[nH]c3c2)c1
8. O=S(=O)(CCOCc1ccc(-c2ccc3ncnc(Nc4ccc(OCc5cccc(F)c5)c(Cl)c4)c3c2)o1)c1ccccc1

[0.64, -1.16, 0.54, 0.49, 0.23, 1.48, 0.84, 0.42]

Batch request: inhibition for each of the following molecules.
1. Cc1cc(-c2ccccn2)cc(C)c1/C=C/c1cncc(-c2nn[nH]n2)c1
2. COc1cc2ncnc(Nc3ccc4c(cnn4Cc4ccccc4)c3)c2cc1OC
3. Cc1ccc2c(-c3ccnc(Nc4cccc(C(F)(F)F)c4)n3)c(-c3ccccc3)nn2n1
4. NS(=O)(=O)c1ccc(N/N=C2\C(=O)Nc3ccc(Cl)cc32)cc1
5. Cc1nc(-c2ccccc2)n2nc(NCCCN3CCOCC3)ncc12

[0.75, -0.95, 0.83, 0.03, 0.51]

Batch request: inhibition for each of the following molecules.
1. N#Cc1cccc(Nc2nccc(-c3cnn4ncccc34)n2)c1
2. Cc1ccc(C(=O)NC2CC2)cc1-c1ccc2[nH]ncc2c1
3. Oc1cccc(-c2nc(-c3ccccc3)[nH]c2-c2ccncc2)c1
4. Nc1nccc(C#Cc2cncnc2Nc2ccc(OCc3cccc(F)c3)c(Cl)c2)n1
5. Cc1ccc2c(-c3ccnc(Nc4ccc5c(c4)OCCO5)n3)c(-c3ccc(C(F)(F)F)cc3)nn2n1
6. CCCN1CCCC(c2ccc(Nc3nc(Nc4cc(F)ccc4C(N)=O)c4cc[nH]c4n3)c(OC)c2)C1 (configuration not stated)
7. O=C1Nc2ccc(-c3cccnc3)cc2C1=Cc1cc(Br)c(O)c(Br)c1
8. CCn1c(-c2nonc2N)nc2ccc(F)cc21

1. -1.54
2. 0.35
3. -0.32
4. -0.16
5. 0.19
6. 1.55
7. 0.92
8. -0.61

Batch request: inhibition for each of the following molecules.
1. Nc1nccc(-c2c(-c3ccc(F)cc3)nn3cc(C(F)(F)F)ccc23)n1
2. CN(C)CCCn1c(-c2nonc2N)nc2cnccc21

[-0.89, 4.34]

Batch request: inhibition for each of the following molecules.
1. CN1CCN(C(=O)c2ccc(NC(=O)Nc3ccc(N(C)c4ccnc(Nc5ccc(CS(C)(=O)=O)cc5)n4)cc3)cc2)CC1
2. NS(=O)(=O)c1cccc(-c2cc3ccncc3cc2OCc2ccccc2)c1
3. OCc1ccc(-c2nc(-c3ccccn3)c(-c3ccc4c(c3)OCO4)[nH]2)cc1

1: -0.06; 2: 1.07; 3: 0.91

Batch request: inhibition for each of the following molecules.
1. COc1cc2ncn(-c3cc(OCc4ccccc4S(C)(=O)=O)c(C#N)s3)c2cc1OC
2. c1ccc(Nc2ncc(-c3ccccc3)o2)cc1
3. CN(C)C(=O)O[C@@H]1CN[C@@H](C#Cc2cc3ncnc(Nc4ccc(OCc5cccc(F)c5)c(Cl)c4)c3s2)C1

1.99
-0.11
-0.75
